- Test system: HCC 2998
- protocol: NCI tumour cell line growth inhibition, 48 h
The source made the active and inactive calls. Cut-off read from the data, not from the text of the source: active = GI50 up to about 1.1 µM and inactive = higher.
observationType: GI50

Observe how each entry below is paired with its result.
compound	measurementTarget	GI50
CCc1nc(N)nc(N)c1-c1ccc(Cl)c([N+](=O)[O-])c1	HCC 2998	2.95 µM (inactive)
COc1cc2c(cc1OCCCOS(C)(=O)=O)N=C[C@@H]1CCCN1C2=O	HCC 2998	> 100 µM (inactive)
CCOC(=O)CSc1nc(-c2ccc(Cl)cc2)c(C#N)c(=O)[nH]1	HCC 2998	76 µM (inactive)

Task item: Can you share its GI50? I mean this compound: `CNc1nc2c(C)ccc3nc(N(C)C)[nH]c3c-2n1`
Reply: 28.2 µM (inactive)

Task item: Let us now turn to `OC1(c2cc3ccccc3s2)CCCCC1`
Reply: 76 µM (inactive)

Task item: Another: `Cc1cc(OCc2nnc3sc(NC(=O)c4ccccc4)nn23)ccc1Cl`
Reply: 26.7 µM (inactive)

Task item: Here is the next compound: `OCCSCCCSCCO`
Reply: > 100 µM (inactive)

Task item: Field entry: `Cc1ccc(S(=O)(=O)N[C@H](C(=O)O)c2ccccc2)cc1`
Reply: > 100 µM (inactive)

Task item: Would you kindly repeat that for `O=C(Nc1nc(C23CC4CC(CC(C4)C2)C3)cs1)c1cc2cc(Br)cc(Br)c2oc1=O` ?
Reply: 75.7 µM (inactive)

Task item: Now give it for `O=C1C(Cl)=C(N(C(=O)c2ccccc2)C(=O)c2ccccc2)C(=O)c2ccccc21` too.
Reply: 12.1 µM (inactive)

Task item: Another compound to check: `c1ccc(C(=NNc2nc3ccccc3[nH]2)c2ccccn2)nc1`
Reply: 15 µM (inactive)

====

- Test system: HCT-116
- protocol: NCI tumour cell line growth inhibition, 48 h
Calls of active or inactive are those of the source. Rule as the data show it: active = GI50 up to about 1.1 µM and inactive = higher.
// reported GI50 per item

Previously resolved entries follow.
compound	measurementTarget	observationType	val
Cc1ccc(Cl)c2c(=O)c3ccc(N)cc3sc12	HCT-116	GI50	16.9 µM (inactive)
COc1ccc(/C=N\N2C(=O)Cc3ccccc32)cc1	HCT-116	GI50	> 100 µM (inactive)
COCC(=O)CP(=O)(OC)OC	HCT-116	GI50	> 100 µM (inactive)
Cc1ccc2nc(CC(=O)c3ccc4ccccc4c3)c(O)nc2c1	HCT-116	GI50	> 100 µM (inactive)
CC1CN=C(N(C(=O)Nc2ccc(Cl)cc2)c2cccc(Cl)c2)S1 (stereo unspecified)	HCT-116	GI50	20.4 µM (inactive)

Task item: # query: GI50 of entry `O=C(NCCCCCCNC(=O)c1cc(-c2ccccc2)nc2ccccc12)c1cc(-c2ccccc2)nc2ccccc12`
Reply: > 100 µM (inactive)

Task item: `O=c1n(-c2ccc(Cl)c(Cl)c2)c(=O)n(-c2ccc(Cl)c(Cl)c2)c(=O)n1-c1ccc(Cl)c(Cl)c1` , same question.
Reply: 1.2 µM (inactive)

Task item: Next record, please: N#CC1=C(N)OC(c2ccc([N+](=O)[O-])cc2)C1(C#N)C#N (stereo unspecified)
Reply: 9.77 µM (inactive)

====

- Tested on: RXF 631
- protocol: NCI tumour cell line growth inhibition, 48 h
Activity calls are given as the source filed them. No stated cut-off is given here; in the data, active = GI50 up to about 1.1 µM and inactive = higher.
Measured GI50, listed per entry.

Solved cases (5 shown):
compound	val
CCOC(=O)C1=C(C)N(NC(N)=O)C2(O)CCCC(=O)C12C (stereo unspecified)	> 100 µM (inactive)
C=CCN(N=O)C(=O)N(CCCCC(NC(C)=O)C(=O)NCc1ccccc1)Cc1ccccc1 (stereo unspecified)	32.5 µM (inactive)
CC1(C)COC(c2cccnc2/C=N/O)=N1	> 100 µM (inactive)
Cc1ccc(S(=O)(=O)N[C@H](C(=O)O)c2ccccc2)cc1	> 100 µM (inactive)
COCCN1C2=CCCCC2=Nc2c1nc(N)[nH]c2=O	> 100 µM (inactive)

Task item: For the compound `N#Cc1c(-c2ccccc2)cc(-c2ccc(N)cc2)[nH]c1=O` , what GI50 is on record?
Reply: > 100 µM (inactive)
